- Tested on: HCT-116
- Measurement Description: cells
- Condition Context: Homo sapiens, HCT-116, 72 h
- Description: Antiproliferative activity against human HCT116 cells after 72 hrs by MTT assay
Readout: IC50 (µM)

Recorded results for 3 compounds are shown here.
C=CCn1c(CN2c3ccccc3Sc3ccccc32)nnc1SCC(=O)O: 32
O=C(O)COc1ccc(/C=N/n2c(COc3ccccc3)nc3ccccc3c2=O)cc1: 54
COc1cc([C@@H]2c3cc4c(cc3[C@@H](O[C@@H]3O[C@@H]5CO[C@@H](C)O[C@H]5[C@H](O)[C@H]3O)[C@H]3COC(=O)[C@H]23)OCO4)cc(OC)c1O [ETOPOSIDE]: 1.1

I. COc1ccc(-c2cc(-c3ccccc3)c(C#N)c(SCC(=O)O)n2)cc1
II. COc1ccc(C(=O)Cn2c(=N)n(Cc3ccc(C)cc3)c3ccccc32)cc1
Data request: Kindly compare I with II and tell me which has the lower IC50 figure. API: response body contains the label of the selected item.
Data returned: II
